Target: c-Myc template DNA (c-myc quadruplex)
Test: Quadruplex binding / stop assay (Taq polymerase arrest, capillary electrophoresis)
Details: read-out: Stop Data c-Myc μM; concentration at which 50% of the DNA was arrested (arrested:full-length 1:1)
OBSERVABLE: IC50 (µM)

COMPOUND	IC50, µM
COC(=O)C(CO)NC(=O)c1cn2c3cc4c(=O)c5ccccc5c(=O)c4cc3oc3c(NCCN4CCCC4)c(F)cc(c1=O)c32 (centres unmarked) [compound 345]	0.9
CN(C)CCCCNc1c(F)cc2c(=O)c(C(=O)NCCN3CCCC3)cn3c2c1Oc1cc2c(cc1-3)oc1ccccc12 [compound 369]	0.75
CN1CCCC1CCNC(=O)c1cn2c3c(c(F)c(F)cc3c1=O)Oc1cc3ccccc3cc1-2 (centres unmarked) [compound 101]	2.25
CCN(CC)CCCC(C)NC(=O)c1cn2c3c(c(N4CCC(NC(=O)OC(C)(C)C)C4)c(F)cc3c1=O)Oc1cc3ccccc3cc1-2 (centres unmarked) [compound 241]	1.75
CN(C)CCCCNC(=O)c1cn2c3c(c(N4CCC(N)C4)ccc3c1=O)Oc1cc3ccccc3cc1-2 (centres unmarked) [compound 589]	0.18
CN1CCCC1CCNC(=O)c1cn2c3c(c(NC(=O)CCN4CCCC4)c(F)cc3c1=O)Oc1cc3ccccc3cc1-2 (centres unmarked) [compound 89]	2.5

[P] N[C@H]1CCN(c2c(F)cc3c(=O)c(C(=O)NCCN4CCCC4)cn4c5cc6c(cc5oc2c34)c(=O)c2ccccc26)C1 [compound 583]
[Q] CN(C)CCCCNC(=O)c1cn2c3cc4c(cc3oc3c(NCCN5CCOCC5)c(F)cc(c1=O)c32)c(=O)c1ccccc14 [compound 490]
Please state the entry with greater IC50 among P and Q . When you have decided, please share the label of that item.
Q
(Q: 0.5 µM, P: 0.18 µM)

[A] O=C(NCCN1CCCC1)c1cn2c3cc4c(cc3oc3c(NCCCN5CCOCC5)c(F)cc(c1=O)c32)c(=O)c1ccccc14 [compound 418]
[B] CN(C)c1ccc(NC(=O)c2cn3c4c(c(NCCC5CCCN5C)c(F)cc4c2=O)Oc2c-3ccc3ccccc23)cc1 (centres unmarked) [compound 136]
Identify the item whose IC50 is the smaller number: A or B When you have decided, please share the label of that item.
A

[P] N=C(N)NCC1CCCC(CNC(=O)c2cn3c4c(c(NCCCN5CCOCC5)c(F)cc4c2=O)Oc2cc4ccccc4cc2-3)C1 (centres unmarked) [compound 331]
[Q] NC1CCN(c2c(F)cc3c(=O)c(C(=O)NCc4ccccc4N4CCOCC4)cn4c3c2Oc2cc3ccccc3cc2-4)C1 (centres unmarked) [compound 248]
Identify the item whose IC50 is the smaller number: P or Q When you have decided, please share the label of that item.
P

[I] CC(C)(C)OC(=O)N[C@@H]1CCN(c2c(F)cc3c(=O)c(C(=O)NCCCCN)cn4c3c2Oc2cc3ccccc3cc2-4)C1 [compound 210]
[II] CN(C)CCCCNC(=O)c1cn2c3c(c(N4CCC(N)C4)c(F)cc3c1=O)Oc1ccccc1-2 (centres unmarked) [compound 460]
Please state the entry with greater IC50 among I and II . When you have decided, please share the label of that item.
I

---

Molecular target: c-Myc template DNA (c-myc quadruplex)
Assay: Quadruplex binding / stop assay (Taq polymerase arrest, capillary electrophoresis)
Conditions: read-out: Stop Data c-Myc μM; concentration at which 50% of the DNA was arrested (arrested:full-length 1:1)
OBSERVABLE: IC50 (µM)

MOLECULE	UNIT_OF_MEASUREMENT	IC50
CC(C)(C)OC(=O)N[C@@H]1CCN(c2c(F)cc3c(=O)c(C(=O)NCCCCN=C(N)N)cn4c3c2Oc2cc3ccccc3cc2-4)C1 [compound 322]	µM	1
O=C(NCCN1CCCC1)c1cn2c3c(c(NCCCN4CCOCC4)c(F)cc3c1=O)Oc1cc3ccccc3cc1-2 [compound 494]	µM	0.44

[1] CN1CCN(c2c(F)cc3c(=O)c(C(=O)NCCC4CCCN4C)cn4c5cc6c(=O)c7ccccc7c(=O)c6cc5oc2c34)CC1 (stereo not shown) [compound 351]
[2] O=C(NCCN1CCOCC1)c1cn2c3c(c(NCCN4CCCC4)c(F)cc3c1=O)Oc1cc3ccccc3cc1-2 [compound 70]
Please state the entry with greater IC50 among 1 and 2 . When you have decided, please share the label of that item.
2
(2: 2.5 µM, 1: 0.9 µM)

---

Recorded pIC50, one value per entry.
Molecular target: c-Myc template DNA (c-myc quadruplex)
Test: Quadruplex binding / stop assay (Taq polymerase arrest, capillary electrophoresis)
Conditions: read-out: S DATA; Table 1D, stop assay data
pIC50: −log10 of the molar value.

COMPOUND	SUBJECT_OF_TEST	pIC50
NCCCCNC(=O)c1cn2c3c(c(NCCN4CCCC4)c(F)cc3c1=O)Oc1ccccc1-2	c-Myc template DNA (c-myc quadruplex)	< 4.82
O=C(NCCN1CCCC1)c1cn2c3c(c(SCCc4cnccn4)c(F)cc3c1=O)Oc1ccccc1-2	c-Myc template DNA (c-myc quadruplex)	< 4.82
CN(C)c1cccc(CNC(=O)c2cn3c4c(c(N5CCC(N)C5)c(F)cc4c2=O)Oc2cc4ccccc4cc2-3)c1 (centres unmarked)	c-Myc template DNA (c-myc quadruplex)	< 4.82
CN1CCCC1CCNC(=O)c1cn2c3c(c(NC(CO)CC4CCCCC4)c(F)cc3c1=O)Oc1cc3ccccc3cc1-2 (centres unmarked)	c-Myc template DNA (c-myc quadruplex)	< 4.82
N=C(N)NCCCCNC(=O)c1cn2c3c(c(NCCN4CCOCC4)c(F)cc3c1=O)Oc1ccccc1-2	c-Myc template DNA (c-myc quadruplex)	< 4.82
O=C(NCCN1CCCC1)c1cn2c3c(c(NCC4CCCO4)c(F)cc3c1=O)Oc1ccc(Cl)cc1-2 (centres unmarked)	c-Myc template DNA (c-myc quadruplex)	< 4.82

Form field: reported pIC50 of O=C(NCCCN1CCOCC1)c1cn2c3c(c(NCCN4CCOCC4)c(F)cc3c1=O)Oc1ccccc1-2
< 4.82

Form field: reported pIC50 of CC(C)N1CCN(c2c(F)cc3c(=O)c(C(=O)NCCN4CCCC4)cn4c3c2Oc2ccccc2-4)CC1
< 4.82

---

Biological target: c-Myc template DNA (c-myc quadruplex)
Assay: Quadruplex binding / stop assay (Taq polymerase arrest, capillary electrophoresis)
Settings: read-out: Stop Data c-Myc μM; concentration at which 50% of the DNA was arrested (arrested:full-length 1:1)
OBSERVABLE: IC50 (µM)

Guide cases for IC50, answers given:
COMPOUND	SUBJECT_OF_TEST	IC50, µM
NC1CCN(c2c(F)cc3c(=O)c(C(=O)NCC(O)CO)cn4c3c2Oc2cc3ccccc3cc2-4)C1 (stereo not drawn)	c-Myc template DNA (c-myc quadruplex)	1.75
CCCCN1CCC(CNc2c(F)cc3c(=O)c(C(=O)NCCC4CCCN4C)cn4c3c2Oc2cc3ccccc3cc2-4)CC1 (stereo not drawn)	c-Myc template DNA (c-myc quadruplex)	1
O=C(NCCCn1ccnc1)c1cn2c3c(c(NCCCN4CCOCC4)c(F)cc3c1=O)Oc1cc3c(cc1-2)-c1ccccc1C3	c-Myc template DNA (c-myc quadruplex)	1

[1] CN1CCN(CCCNc2c(F)cc3c(=O)c(C(=O)N4CCN(C)CC4)cn4c5cc6c(=O)c7ccccc7c(=O)c6cc5oc2c34)CC1
[2] CC1(C)CC(NC(=O)c2cn3c4c(c(NCCN5CCCC5)ccc4c2=O)Oc2cc4ccccc4cc2-3)CC(C)(C)N1
[3] CN(C)CCCCNc1c(F)cc2c(=O)c(C(=O)NCCCn3ccnc3)cn3c2c1Oc1cc2c(cc1-3)oc1ccccc12
Rank by IC50 (largest to smallest). To answer, write out the labels according to the requested order.
1, 2, 3
(1: 1.75 µM, 2: 0.75 µM, 3: 0.375 µM)
